# test-system: Fyn (UniProt P06241)
# Sequence (P06241 whole entry, looked up): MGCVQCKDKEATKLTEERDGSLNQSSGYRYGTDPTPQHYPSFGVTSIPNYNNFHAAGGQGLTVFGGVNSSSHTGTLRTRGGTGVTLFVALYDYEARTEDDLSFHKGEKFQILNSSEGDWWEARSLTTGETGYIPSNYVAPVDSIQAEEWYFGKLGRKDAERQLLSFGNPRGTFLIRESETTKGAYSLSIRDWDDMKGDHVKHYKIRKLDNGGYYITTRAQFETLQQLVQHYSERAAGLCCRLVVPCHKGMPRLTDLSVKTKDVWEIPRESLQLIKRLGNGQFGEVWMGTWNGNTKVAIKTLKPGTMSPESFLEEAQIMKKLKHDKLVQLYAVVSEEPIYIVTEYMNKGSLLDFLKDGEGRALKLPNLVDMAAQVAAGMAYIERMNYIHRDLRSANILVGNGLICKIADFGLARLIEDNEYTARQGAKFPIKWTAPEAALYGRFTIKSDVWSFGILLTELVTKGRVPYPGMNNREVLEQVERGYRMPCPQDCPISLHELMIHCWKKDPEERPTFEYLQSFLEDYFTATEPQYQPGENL
# protocol-description: phosphorylation enrichment, bacterial display (enrichment ratio); higher = better substrate or ligand; peptides without Tyr show the background
Categories are defined by ranges of phosphorylation enrichment, namely bin 1 = under 0.4, bin 2 = from 0.4 up to 0.6, bin 3 = 0.6 and over

Query: Could you place GHLYAYDWISI [BEST1_Y227] in its proper category? Many thanks.
Response: bin 3

Query: Record RENGPYFTSFP [GDAP2_Y487_YF] — which class?
Response: bin 2

###

Provide the recorded SH2 binding enrichment for the entries that follow.
# test-system: SHP2-C SH2
# protocol-description: SH2 binding enrichment of the phosphorylated peptide, bacterial display (enrichment ratio); higher = better substrate or ligand; peptides without Tyr show the background
Answers are plain numbers.

residues	test-system	observation-type	numeric-result
LVSCTYQLARG [FGFR2_Y608]	SHP2-C SH2	SH2 binding enrichment	0.7
EVVGRYSVHFA [MLH1_Y183_N187Y_YF]	SHP2-C SH2	SH2 binding enrichment	0.798
QSPQLYKQMCI [DARS1_Y253]	SHP2-C SH2	SH2 binding enrichment	0.904
LFHENYNAGTF [CFI_Y421_I416L_YF]	SHP2-C SH2	SH2 binding enrichment	0.856
PRIKTYMRPSP [TDP1_Y497_H493R]	SHP2-C SH2	SH2 binding enrichment	0.948
SPYMLYQYLKQ [RPAP3_Y567_D564Y]	SHP2-C SH2	SH2 binding enrichment	3.05

Need SH2 binding enrichment for each of these sequences.
1. LKGQVDILGRE [ASS1_Y359_Y359D]
2. IRQDDYESLKE [MTR_Y921_H920D]
3. PSRKDYETYQS [CTNND2_Y1154_P1159S]
4. GGYNNYGYGND [HNRNPH3_Y159]
5. PEVSGYCHCAD [TG_Y234]
6. SGGSSYGSGGC [KRT1_Y532_G537C]
7. PFTRNYFVQAV [CYBA_Y87_R90Q_YF]

Response:
[0.582, 0.707, 0.899, 0.571, 0.549, 0.536, 0.467]

###

Kindly state SH2 binding enrichment for each of the entries shown.
# test-system: Grb2 SH2 (UniProt P62993)
# Sequence (P62993 whole entry, looked up): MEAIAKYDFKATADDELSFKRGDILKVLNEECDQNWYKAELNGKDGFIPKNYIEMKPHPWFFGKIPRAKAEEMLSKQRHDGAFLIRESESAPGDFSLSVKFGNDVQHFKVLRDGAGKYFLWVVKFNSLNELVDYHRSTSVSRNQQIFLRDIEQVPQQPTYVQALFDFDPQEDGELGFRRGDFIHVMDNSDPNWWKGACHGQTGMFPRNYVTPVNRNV
# protocol-description: SH2 binding enrichment of the phosphorylated peptide, bacterial display (enrichment ratio); higher = better substrate or ligand; peptides without Tyr show the background

residues	SH2 binding enrichment
NQDRTYYESVR [SPEN_Y632]	0.924
KKYPDYIQSAM [SGMS2_Y59_I62S]	0.883
NLMPAYHKCIQ [CYP21A2_Y190_Y191H]	0.878
FYNSEYGELSE [FLT4_Y1337]	0.886
EAVSIYQFFGQ [CBLC_Y402_H405Y_YF]	0.921
HAVFVYDICHV [TWNK_Y508_YF]	0.895

Value sought for every listed sequence: SH2 binding enrichment.
1. HKANEYYPVVL [ADAMTS18_Y764]
2. FQGGTYSKACT [FGG_Y380_S384C_YF]
3. QDTSRYTVSNL [BIRC3_Y245]
4. FTNRNYDLDFD [MYC_Y12_YF]
5. RLNCIYYKDQT [RS1_Y165_W163C]

Response:
0.902
0.918
0.879
0.828
1.15

Provide SH2 binding enrichment values for the following items, in order.
1. FEEDSYVKRSQ [RET_Y905_YF]
2. RMDGTYACSFT [FLNB_Y704_YF]
3. DQVEQYKKELE [LMNA_Y259]
4. DFSLKYPTDIP [APC_Y1183_A1184P_YF]

Response:
0.799
0.893
0.956
0.768

For each of the sequences below, state SH2 binding enrichment.
1. ILIFHYAKGQP [MPZ_Y82_S78L]
2. LRYEVYGGENE [STOX1_Y610]
3. QRVLLYVRRET [GRHL3_Y518]

Response:
1. 1.47
2. 0.677
3. 0.713

For each of the items listed, what is its SH2 binding enrichment?
1. VDLIVYLWTNP [TK2_Y181_R183W]
2. GHNDVYISKHV [GRIN2A_Y1423_E1426K]
3. HKNNNYEPSLF [BRCA2_Y57_N60S]

Response:
1. 0.713
2. 0.79
3. 0.931

For each of the sequences below, note its SH2 binding enrichment.
1. EYGRRYGFSCQ [CCDC93_Y209_R213C]
2. FGSVDCWEKFF [EEF1AKNMT_Y16_Y16C]

Response:
1: 0.725; 2: 0.944

Working through the 6 sequences below one at a time, give SH2 binding enrichment for each.
1. TFGVAYRAKDK [CDK11B_Y453_V452A_YF]
2. IGEGTYRTVFK [CDK5_Y15_G16R]
3. LLREWYVQDPY [SIX3_Y225_L226V]
4. ADEEFYEIIAA [FEStide_F_2014]
5. TQNAVYSAANY [DDX5_Y535_G533A]
6. PEADKYHLTFA [FGG_Y300_R301H_YF]

Response:
0.842
0.674
1.05
0.917
0.88
0.637

Each sequence below has a recorded value; state its SH2 binding enrichment.
1. VNTMLYEKFTF [TEK_Y1108_T1106M_YF]
2. NQNIGYELGHR [KCNN3_Y268_K269E]
3. MFDKEYFSVHN [MET_Y1234_YF]
4. PTDCVYVMPTV [MYO7A_Y1668_S1666C]
5. LGPSDYFGEIA [PRKAR1A_Y323]
6. KGIQLYDTPYE [SHB_Y297]
7. KMMGRYEMYAR [UPB1_Y362_T359M]

Response:
[1.01, 0.892, 0.746, 1.01, 0.878, 1.15, 1.29]

Need SH2 binding enrichment for each of these sequences.
1. EAEALYQTKFQ [KRT73_Y325]
2. SREDIYKRNTE [PDE4DIP_Y45_I49T]
3. MKDLTYSSLCF [ALOX5_Y446_A447S]
4. EEGESDVCSSD [DCX_Y125_Y125D]

Response:
1. 0.707
2. 0.685
3. 0.756
4. 0.922
